assay name: ACEA_ER_AUC_viability: ACEA Biosciences xCELLigence Real-Time Cell Analysis on Estrogen Receptor Agonism for Viability (AID 2283782);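 note: continuous compound exposure with impedance area under curve over 80 h; hit means loss of impedance signal meaning reduced cell growth or viability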
Inconclusive results are not listed. The source made the active and inactive calls. Rule for the calls: active = hit-call score of the fitted dose curve at least 0.9, where 1 is the maximum; inconclusive = response in the unintended direction; inactive = score below 0.9.
Respond only with the outcome that fits, drawn from 1 (active), -1 (inactive)

The following compounds have reported results that may help.
INSERT INTO results (compound, assigned_category) VALUES
  ('O=C(Cl)C(F)(F)C(F)(F)C(F)(F)C(F)(F)C(F)(F)C(F)(F)C(F)(F)C(F)(F)F', 1),
  ('CC(Cc1ccc(O)c(O)c1)C(C)Cc1ccc(O)c(O)c1 (configuration not stated)', 1),
  ('CCN(CC)c1ccc2c(C)cc(=O)oc2c1', 1),
  ('Cc1ccc(S(=O)(=O)NCl)cc1', -1);

Which outcome was assigned to CC(C)=CCCC(C)CCOC(=O)C(C)C (configuration not stated) in this test?
1

Which outcome was assigned to CCCCOCCOCCOC(=O)CCCCC(=O)OCCOCCOCCCC in this test?
-1

Which outcome was assigned to O=C(O)C(F)(F)C(F)(F)C(F)F in this test?
-1

Which outcome was assigned to CCCCCCOC(=O)c1ccccc1O in this test?
-1

Which outcome was assigned to C=C(C)C(=O)OCC(F)(F)C(F)(F)C(F)(F)F in this test?
-1

Which outcome was assigned to CS(C)(=O)=O in this test?
-1

Which outcome was assigned to CC/C=C\CCOC(=O)c1ccccc1 in this test?
1

Which outcome was assigned to Nc1ccc([N+](=O)[O-])cc1O in this test?
-1
